# MEASUREMENT TARGET: T1, Activin A (UniProt P08476 311-426)
# T1 sequence (looked up): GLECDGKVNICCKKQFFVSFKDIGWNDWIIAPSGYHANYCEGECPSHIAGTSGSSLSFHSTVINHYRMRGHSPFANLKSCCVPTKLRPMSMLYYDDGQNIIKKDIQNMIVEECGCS
# ASSAY TEXT: SPR (Biacore 3000), Fc fusion captured, ligand in solution
PROPERTY LABEL: Kd

INSERT INTO assay_data (binder, property_label, result) VALUES
  ('ActRIIB 2.09 variant (SEQ ID NO: 12)-Fc (Fc fusion, not shown: a dimerising Fc or GST, Engineered variant of the human ActRIIB extracellular portion; also called ActRIIB variant 2.09-hFc) GRGEAETRECLYYNANWELERTNQSGVERCEGEKDKRLHCYASWRNSSGSLEIVKKGCWLDDFNCYDRTDCVATEENPQVYFCCCEGNMCNERFTHLPEAGGPEVTYEPPPTAPT', 'Kd', '100 pM'),
  ('ActRIIB 2.10 variant (SEQ ID NO: 13)-Fc (Fc fusion, not shown: a dimerising Fc or GST, Engineered variant of the human ActRIIB extracellular portion; also called ActRIIB variant 2.10-hFc) GRGEAETRECLYYNANWELERTNQSGVERCEGEKDKRLHCYASWRNSSGSLEIVKKGCWLDDFNCYDRDTCVATEENPQVYFCCCEGNMCNERFTHLPEAGGPEVTYEPPPTAPT', 'Kd', '450 pM'),
  ('ActRIIB (SEQ ID NO: 17)-Fc (Fc fusion, not shown: a dimerising Fc or GST, Recombinant wild-type extracellular ActRIIB-Fc; also called ActRIIB-Fc) GRGEAETRECIYYNANWELERTNQSGLERCEGEQDKRLHCYASWRNSSGTIELVKKGCWLDDFNCYDRQECVATEENPQVYFCCCEGNFCNERFTHLPEAGGPEVTYEPPPTAPT', 'Kd', '63 pM'),
  ('ActRIIB 2.11 variant (SEQ ID NO: 14)-Fc (Fc fusion, not shown: a dimerising Fc or GST, Engineered variant of the human ActRIIB extracellular portion; recombinant protein) GRGEAETRECLYYNANWELERTNQSGVERCEGEKDKRLHCYASWRNSSGSLEIVKKGCWLDDFNCYDRTDCVATKENPQVYFCCCEGNMCNERFTHLPEAGGPEVTYEPPPTAPT', 'Kd', '780 pM'),
  ('ActRIIB 2.12 variant (SEQ ID NO: 15)-Fc (Fc fusion, not shown: a dimerising Fc or GST, Engineered variant of the human ActRIIB extracellular portion; recombinant protein) GRGEAETRECLYYNANWELERTNQSGVERCEGEKDKRLHCYASWRNSSGSLEIVKKGCWLDDFNCYDRDTCVATKENPQVYFCCCEGNMCNERFTHLPEAGGPEVTYEPPPTAPT', 'Kd', '140 pM');
